Values compiled from patent US11214803B2.

# System: Yap1 mRNA
# experimental-protocol: Antisense inhibition of human Yap1 in A-431 cells by cEt gapmers, single dose (Example 3, RTS36584)
# Type: cell-based
# measurement-context: Table 11; A-431 cells, 5,000 cells per well, free uptake, 2,000 nM oligonucleotide, approx. 48 hours; primer probe set RTS36584; Yap1 mRNA normalized to RIBOGREEN, percent of untreated control
Strand notation (5' to 3'): a small letter for the sugar, then the base; units joined by * are phosphorothioate-linked, units joined directly phosphodiester-linked; [ ] holds rarer units or linkages, { } end groups; capitals alone tell only the bases. k = constrained ethyl (cEt); [5mC] = 5-methylcytosine; d = 2'-deoxy (DNA)
Catalogue of YAP1 (% UTC) values
Supply the numeric figure in % UTC, leaving out any unit text.

Some solved cases for reference:
958453 (antisense kG*k[5mC]*k[5mC]*dT*d[5mC]*dA*dT*dG*dG*dG*d[5mC]*dA*d[5mC]*kG*kG*kT) [Compound 958453]; 70
958703 (antisense kG*kA*kT*dA*dA*d[5mC]*dT*dA*dA*dG*d[5mC]*dA*d[5mC]*kT*kA*k[5mC]) [Compound 958703]; 49

Attention now shifts to the item below.
Could you please provide reported YAP1 (% UTC) for 958618 (antisense kA*kG*k[5mC]*d[5mC]*dA*dA*dG*dA*dG*dG*dT*dG*dG*kT*k[5mC]*kT) [Compound 958618] ? Thanks!
36

###

# Test system: Yap1 mRNA
# experimental-protocol: Dose-dependent inhibition of human Yap1 in SNU-449 cells (Example 9, RTS36584)
# Type: cell-based
# measurement-context: 2000.00 nM, free uptake, approximately 48 hours
Strand notation (5' to 3'): a small letter for the sugar, then the base; units joined by * are phosphorothioate-linked, units joined directly phosphodiester-linked; [ ] holds rarer units or linkages, { } end groups; capitals alone tell only the bases. e = 2'-O-(2-methoxyethyl) (MOE); k = constrained ethyl (cEt); [5mC] = 5-methylcytosine; d = 2'-deoxy (DNA)
endpoint: % UTC (Yap1 mRNA) (% UTC)
Supply the numeric figure in % UTC, leaving out any unit text.

Some solved cases for reference:
1198857 (kT*k[5mC]*dT*dT*dA*dT*dA*dT*dG*dG*dT*kT*eT*kT*eG*kT) [compound 1198857]; 4
1198673 (kG*kA*dT*dT*dT*dA*dG*dG*dA*dT*dG*d[5mC]*kA*eT*kG*eG; antisense) [compound 1198673]; 3
1198557 (kA*kT*kA*dT*dT*dA*dG*dA*dG*dT*dA*dT*kG*kT*kG*eG; antisense) [compound 1198557]; 11

Attention now shifts to the item below.
Could you please provide reported % UTC (Yap1 mRNA) for 1074756 (kG*k[5mC]*kA*d[5mC]*dT*dT*dT*dT*dA*d[5mC]*dA*dT*dT*kA*kG*kG) [compound 1074756] ? Thanks!
3

###

# Test system: SCC25 cells
# experimental-protocol: Cell proliferation assay in SCC25 cells, CellTiter-Glo (Example 25)
# Assay type: cell-based, human
# measurement-context: 5 μM, free uptake, 144 hours
Catalogue of cell proliferation (luminescence) % UTC values
Supply the numeric figure in % UTC, leaving out any unit text.

Some solved cases for reference:
1198623 (CTAAGTAAGGTTTCCC; modified gapmer, further chemistry not given here) [compound 1198623]; 29
1198728 (TATTAGAGTATGTGGC; modified gapmer, further chemistry not given here) [compound 1198728]; 20
958499 (ATTAGAGTATGTGGCA; 3-10-3 cEt gapmer, further chemistry not given here) [compound 958499]; 14
1197270 (TTAAAGTGTATGTCAG; cEt gapmer with 2'-OMe nucleoside, phosphorothioate, further chemistry not given here) [compound 1197270]; 14
CGCCGATAAGGTACAC (cEt gapmer, phosphorothioate backbone, further chemistry not given here) [ION 792169, reference compound]; 88

Could you please provide reported cell proliferation (luminescence) % UTC for 1198605 (GTAATATTGCAATCTG; modified gapmer, further chemistry not given here) [compound 1198605] ? Thanks!
13
